Numbers sourced from patent US20150191469A1.

tested on: HIV; assay: MT4 assay: antiviral HIV activity (cell protection, cell titer glo readout at 96 hours); type: cell-based; details: Human immunodeficiency virus 1, MT4, 96 h, MT4 cells, cell titer glo readout at 96 hours, 10 point dose response; read-out: HIV MT4 Assay IC50
measured-attribute: IC50 (nM)

# molecule, unit-abbreviation, IC50
measured = [
    ("Cc1nc2c(cc(-c3cnn(CC4CN(C(=O)OC(C)(C)C)C4)c3)n2C)c(-c2cc(F)c3c(c2C)CCCO3)c1[C@H](OC(C)(C)C)C(=O)O", "nM", 41.1),
]

(1) CCCn1cc(-c2cc3c(-c4cc(F)c5c(c4C)CCCO5)c([C@H](OC(C)(C)C)C(=O)O)c(C)nc3n2C)cn1 (atropisomer, axis not shown)
(2) Cc1nc2c(cc(-c3ccnc(N4CCCN(C5COC5)CC4)c3)n2C)c(-c2ccc(Cl)cc2)c1[C@H](OC(C)(C)C)C(=O)O
Request: Returns the identifier with the smallest measured IC50 among 1 and 2 . Answer = label.
Response: 1

----------
tested on: HIV; assay: MT4 assay: antiviral HIV activity (cell protection, cell titer glo readout at 96 hours); assay type: cell-based; conditions: Human immunodeficiency virus 1, MT4, 96 h, MT4 cells, cell titer glo readout at 96 hours, 10 point dose response; read-out: HIV MT4 Assay IC50
measured-attribute: IC50 (nM)

Solved cases below.
# molecule, measured-attribute, readout-number
records = [
    ("Cc1nc2c(cc(-c3nc(N4CCN5CCC[C@@H]5C4)ns3)n2C)c(-c2cc(F)c3c(c2C)CCCO3)c1[C@H](OC(C)(C)C)C(=O)O [Example 381]", "IC50", 2.7),
    ("Cc1nc2c(cc(-c3nnc(N4CCN5CCC[C@@H]5C4)o3)n2C)c(-c2cc(F)c3c(c2C)CCCO3)c1[C@H](OC(C)(C)C)C(=O)O [Example 326]", "IC50", 3.8),
    ("Cc1nc2c(cc(-c3nnc(N4CCN(C5CCOCC5)CC4)s3)n2C)c(-c2cc(F)c3c(c2C)CCCO3)c1[C@H](OC(C)(C)C)C(=O)O [Example 376]", "IC50", 14.4),
    ("Cc1nc2c(cc(C(=O)NCCCN3CCCC3=O)n2C)c(-c2cc(F)c3c(c2C)CCCO3)c1[C@H](OC(C)(C)C)C(=O)O [Example 273]", "IC50", 939),
]

(1) Cc1nc2c(cc(-c3ccnc(N4CCCN(C(=O)C5CCOCC5)CC4)c3)n2C)c(-c2cc(F)c3c(c2C)CCCO3)c1[C@H](OC(C)(C)C)C(=O)O (atropisomer, axis not shown) [Example 108]
(2) Cc1nc2c(cc(-c3ccnc(-c4cccc5c4cnn5C)c3)n2C)c(-c2cc(F)c3c(c2C)CCCO3)c1[C@H](OC(C)(C)C)C(=O)O (atropisomer, axis not shown) [Example 58]
Request: Returns the identifier with the smallest measured IC50 among 1 and 2 . Answer = label.
Response: 2
(2: 5.4 nM, 1: 131 nM)

(a) CNC(=O)c1cc2c(-c3cc(F)c4c(c3C)CCCO4)c([C@H](OC(C)(C)C)C(=O)O)c(C)nc2n1C [Example 228]
(b) Cc1nc2c(cc(-c3ccnc(N4CCN(c5ccncc5)CC4)c3)n2C)c(-c2cc(F)c3c(c2C)CCCO3)c1[C@H](OC(C)(C)C)C(=O)O (atropisomer, axis not shown) [Example 88]
(c) Cc1noc(C)c1-c1cc(-c2cc3c(-c4cc(F)c5c(c4C)CCCO5)c([C@H](OC(C)(C)C)C(=O)O)c(C)nc3n2C)ccn1 (atropisomer, axis not shown) [Example 43]
Request: Provide the items ranked by increasing IC50. Form entry: ranked labels (order as requested).
Response: b, c, a

(P) Cc1nc2c(cc(-c3ccnc(N4CCN(c5ccccn5)CC4)c3)n2C)c(-c2cc(F)c3c(c2C)CCCO3)c1[C@H](OC(C)(C)C)C(=O)O (atropisomer, axis not shown) [Example 90]
(Q) Cc1nc2c(cc(C(=O)N3CCC(c4ccncc4)CC3)n2C)c(-c2cc(F)c3c(c2C)CCCO3)c1[C@H](OC(C)(C)C)C(=O)O [Example 171]
(R) Cc1nc2c(cc(C(=O)NCc3ccc(F)cc3)n2C)c(-c2cc(F)c3c(c2C)CCCO3)c1[C@H](OC(C)(C)C)C(=O)O [Example 230]
(S) CC(=O)N1CCCN(c2cc(-c3cc4c(-c5cc(F)c6c(c5C)CCCO6)c([C@H](OC(C)(C)C)C(=O)O)c(C)nc4n3C)ccn2)CC1 (atropisomer, axis not shown) [Example 95]
Request: Provide the items ranked by increasing IC50. Form entry: ranked labels (order as requested).
Response: R, P, Q, S

(a) Cc1nc2c(cc(C(=O)NCC(C)(C)C)n2C)c(-c2cc(F)c3c(c2C)CCCO3)c1[C@H](OC(C)(C)C)C(=O)O [Example 243]
(b) Cc1nc2c(cc(-c3nc(N4C[C@@H](C)N[C@@H](C)C4)ns3)n2C)c(-c2cc(F)c3c(c2C)CCCO3)c1[C@H](OC(C)(C)C)C(=O)O (racemic) [Example 397]
(c) Cc1nc2c(cc(-c3nnc(N4C[C@H](C)O[C@@H](C)C4)o3)n2C)c(-c2cc(F)c3c(c2C)CCCO3)c1[C@H](OC(C)(C)C)C(=O)O [Example 351]
(d) Cc1nc2c(cc(-c3cc(N4CCN(C5CCOCC5)CC4)ccn3)n2C)c(-c2cc(F)c3c(c2C)CCCO3)c1[C@H](OC(C)(C)C)C(=O)O [Example 362]
Request: Sort the 4 molecules by IC50; largest first, smallest last. Form entry: ranked labels (order as requested).
Response: a, b, d, c

----------
system: HIV; assay: MT4 assay: antiviral HIV activity (cell protection, cell titer glo readout at 96 hours); format: cell-based; settings: Human immunodeficiency virus 1, MT4, 96 h, MT4 cells, cell titer glo readout at 96 hours, 10 point dose response; read-out: HIV MT4 Assay IC50
measured-attribute: IC50 (nM)

Solved cases below.
# molecule, IC50, nM
records = [
    ("Cc1nc2c(cc(-c3ccnc(N4CCCN(C(=O)C5CCOC5)CC4)c3)n2C)c(-c2cc(F)c3c(c2C)CCCO3)c1[C@H](OC(C)(C)C)C(=O)O (some centres unmarked)", 54.6),
    ("Cc1nc2c(cc(-c3ccnc(N4CCCN(C(C)C)CC4)c3)n2C)c(-c2cc(F)c3c(c2C)CCCO3)c1[C@H](OC(C)(C)C)C(=O)O (atropisomer, axis not shown)", 16.2),
    ("Cc1nc2c(cc(C(=O)N3CCC(c4ccccc4)CC3)n2C)c(-c2cc(F)c3c(c2C)CCCO3)c1[C@H](OC(C)(C)C)C(=O)O", 4.2),
    ("Cc1nc2c(cc(-c3ccnc(-c4ccc5c(c4)OCCO5)c3)n2C)c(-c2cc(F)c3c(c2C)CCCO3)c1[C@H](OC(C)(C)C)C(=O)O", 5.8),
    ("Cc1nc2c(cc(-c3nc(N4CCC(N(C)C)CC4)ns3)n2C)c(-c2cc(F)c3c(c2C)CCCO3)c1[C@H](OC(C)(C)C)C(=O)O", 15.5),
    ("Cc1nc2c(cc(-c3nnc(N4CCCOCC4)o3)n2C)c(-c2cc(F)c3c(c2C)CCCO3)c1[C@H](OC(C)(C)C)C(=O)O", 11.9),
]

(A) Cc1nc2c(cc(-c3nc(N4CCC(N5CCCC5)CC4)ns3)n2C)c(-c2cc(F)c3c(c2C)CCCO3)c1[C@H](OC(C)(C)C)C(=O)O
(B) Cc1nc2c(cc(-c3ccnc(-c4ccc5c(c4C)NCCO5)c3)n2C)c(-c2cc(F)c3c(c2C)CCCO3)c1[C@H](OC(C)(C)C)C(=O)O (atropisomer, axis not shown)
(C) Cc1nc2c(cc(-c3nnc(N4CCC(OC(C)C)CC4)o3)n2C)c(-c2cc(F)c3c(c2C)CCCO3)c1[C@H](OC(C)(C)C)C(=O)O
(D) Cc1nc2c(cc(-c3ccnc(N4CCCN(C(=O)C5CCCC5)CC4)c3)n2C)c(-c2cc(F)c3c(c2C)CCCO3)c1[C@H](OC(C)(C)C)C(=O)O (atropisomer, axis not shown)
(E) Cc1nc2c(cc(C(=O)NCCC(F)(F)F)n2C)c(-c2cc(F)c3c(c2C)CCCO3)c1[C@H](OC(C)(C)C)C(=O)O
Request: Sort the 5 molecules by IC50; largest first, smallest last. Form entry: ranked labels (order as requested).
Response: D, E, A, C, B
(D: 67.4 nM, E: 22.5 nM, A: 15 nM, C: 5.2 nM, B: 3.2 nM)

----------
System: HIV
Assay: MT4 assay: antiviral HIV activity (cell protection, cell titer glo readout at 96 hours)
Assay type: cell-based
Details: Human immunodeficiency virus 1, MT4, 96 h, MT4 cells, cell titer glo readout at 96 hours, 10 point dose response; read-out: HIV MT4 Assay IC50
Protocol: […] Luciferase activity was measured 96 hours later by adding a cell titer glo (Promega, Madison, Wis.). […] Under the same condition, cytotoxicity of the compounds was determined using cell titer Glo™ (Promega, Madison, Wis.). […]
pIC50: −log10 of the molar value.
measured-attribute: pIC50

(I) Cc1nc2c(cc(-c3ccnc(N4CCCN(C5CCC5)CC4)c3)n2C)c(-c2cc(F)c3c(c2C)CCCO3)c1[C@H](OC(C)(C)C)C(=O)O (atropisomer, axis not shown)
(II) Cc1nc2c(cc(-c3nnc(N4CCOC(C)(C)C4)o3)n2C)c(-c2cc(F)c3c(c2C)CCCO3)c1[C@H](OC(C)(C)C)C(=O)O
(III) Cc1nc2c(cc(-c3ccnc(-c4ccc5c(cnn5C)c4)c3)n2C)c(-c2ccc3c(c2C)NCCO3)c1[C@H](OC(C)(C)C)C(=O)O
Request: Output the entries ranked by pIC50 from maximum down to minimum. Form entry: ranked labels (order as requested).
Response: III, II, I

(1) Cc1nc2c(cc(-c3ccnc(C#CCN4CCCC4)c3)n2C)c(-c2cc(F)c3c(c2C)CCCO3)c1[C@H](OC(C)(C)C)C(=O)O (atropisomer, axis not shown)
(2) Cc1cnc(CNC(=O)c2cc3c(-c4cc(F)c5c(c4C)CCCO5)c([C@H](OC(C)(C)C)C(=O)O)c(C)nc3n2C)cn1
Request: Returns the identifier with the smallest measured pIC50 among 1 and 2 . Answer = label.
Response: 2

(a) Cc1nc2c(cc(-c3ccnc(N4CCCN(C(=O)C(C)C)CC4)c3)n2C)c(-c2cc(F)c3c(c2C)CCCO3)c1[C@H](OC(C)(C)C)C(=O)O (atropisomer, axis not shown)
(b) COc1ncc(-c2cc(-c3cc4c(-c5cc(F)c6c(c5C)CCCO6)c([C@H](OC(C)(C)C)C(=O)O)c(C)nc4n3C)ccn2)cn1 (atropisomer, axis not shown)
(c) Cc1nc2c(cc(-c3nc(N4CCN(S(=O)(=O)C5CCOCC5)CC4)ns3)n2C)c(-c2cc(F)c3c(c2C)CCCO3)c1[C@H](OC(C)(C)C)C(=O)O
Request: Sort the 3 molecules by pIC50; largest first, smallest last. Form entry: ranked labels (order as requested).
Response: c, b, a

(a) Cc1nc2c(cc(C(=O)NCc3c(F)cccc3Cl)n2C)c(-c2cc(F)c3c(c2C)CCCO3)c1[C@H](OC(C)(C)C)C(=O)O
(b) CCCCNC(=O)c1cc2c(-c3cc(F)c4c(c3C)CCCO4)c([C@H](OC(C)(C)C)C(=O)O)c(C)nc2n1C
Request: Returns the identifier with the smallest measured pIC50 among a and b . Answer = label.
Response: b
